Just for reference, ChEMBL document CHEMBL3988442 is where these values come from.

Please provide measured Percent Effect for the entries that follow.
Biological target: Histidine--tRNA ligase (Leishmania infantum) (UniProt A4I591)
Sequence (A4I591 as listed by the source): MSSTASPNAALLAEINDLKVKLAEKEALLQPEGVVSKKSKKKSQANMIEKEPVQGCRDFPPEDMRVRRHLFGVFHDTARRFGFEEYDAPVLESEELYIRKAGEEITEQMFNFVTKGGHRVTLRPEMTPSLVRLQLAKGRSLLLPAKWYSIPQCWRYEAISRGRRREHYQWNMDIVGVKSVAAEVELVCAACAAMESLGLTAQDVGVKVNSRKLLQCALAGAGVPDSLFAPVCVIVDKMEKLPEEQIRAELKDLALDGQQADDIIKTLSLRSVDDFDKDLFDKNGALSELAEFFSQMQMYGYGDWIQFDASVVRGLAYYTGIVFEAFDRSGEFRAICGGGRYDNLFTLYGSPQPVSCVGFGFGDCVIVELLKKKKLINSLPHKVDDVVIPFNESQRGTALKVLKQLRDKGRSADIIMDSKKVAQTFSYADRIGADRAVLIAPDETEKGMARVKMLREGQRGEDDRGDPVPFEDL
Assay: Leishmania infantum Histidine tRNA synthetase (LdHisRS)
Format: functional
Set-up: scale not given: in the data most compounds retested in dose-response had high values
Conditions: 30 µM
About 420 (0.61%) of roughly 69,000 compounds showed an effect of 50% or more. The list comes from a sample in which strong results are over-represented; it also holds close analogues and randomly drawn compounds.
State the answer as a number, implicitly in %.

# molecule COc1cccc(CN2C[C@@H]3CC[C@@](O)(c4ccccn4)[C@@H]3C2)c1OC ; its Percent Effect = 0

# molecule Cc1cccc2c1nc(COCC(=O)O)n2-c1ccc(N)nc1 ; its Percent Effect = 1.67

# molecule O=C(c1cccnc1)N1C[C@@H]2CC[C@H](C1)N(Cc1ccc(F)cc1Cl)C2 ; its Percent Effect = 7.2

# molecule CC(C)C(=O)N1CCN(C(=O)c2cc(Cl)no2)[C@H]2CS(=O)(=O)C[C@H]21 ; its Percent Effect = 1.61

# molecule Cc1noc(C(C)Nc2ccc3oc(=O)[nH]c3c2)n1 (stereo not given) ; its Percent Effect = 16.4
